System: primary human blood monocytes (hPBMC)
Assay: TNF-alpha induction in primary human blood monocytes (hPBMC)
Type: cell-based
Settings: second word of the cell IFN-α/TNF-α Induction (Yes/No)
In the oligonucleotide strings, read from the 5' end, every base follows the letter of its sugar. An asterisk marks phosphorothioate; unmarked linkages are phosphodiester. Other units and linkages are bracketed, terminal groups are in braces. A string of capitals states the bases alone. d = 2'-deoxy (DNA); m = 2'-O-methyl; r = 2'-OH (RNA); {P} = phosphate; f = 2'-fluoro
property-measured: TNF-α Induction

substance: AD-9736: PCSK9 siRNA which targets only human and monkey PCSK9 message; SEQ ID NO:1517/1518 (chain 1 AGGuGuAucuccuAGAcAcTsT; chain 2 GUGUCuAGGAGAuAcACCUTsT; as printed in the source, key not given here)
observed: No/No
--
substance: AD-10792: 2′OMe modified dsRNA targeting PCSK9 at 1091-1109, SEQ ID NO:1305/1306 (chain 1 rGmCmCmUrGrGrArGmUmUmUrAmUmUmCrGrGrArAdT*dT; chain 2 rUrUrCrCrGrArAmUrArArArCrUrCmCrArGrGrCdT*dT)
observed: No/No
--
substance: AD-1a4: modified dsRNA, sense 2′ OMe, antisense 2′ F all Py, 5′ Phosphate; SEQ ID NO:1511/1512 (sense rGmCmCmUrGrGrArGmUmUmUrAmUmUmCrGrGrArAdT*dT; antisense {P}-fUfUfCfCrGrArAfUrArArAfCfUfCfCrArGrGfCdT*dT)
observed: No/No

====

System: PCSK9 mRNA
Experiment: PCSK9 siRNA screening in HepG2 cells (lipofectamine 2000 transfection, PCSK9 mRNA by Quantigene, normalized to GAP-DH)
Assay type: cell-based, human
Details: 30 nM siRNA
In the oligonucleotide strings, read from the 5' end, every base follows the letter of its sugar. An asterisk marks phosphorothioate; unmarked linkages are phosphodiester. Other units and linkages are bracketed, terminal groups are in braces. A string of capitals states the bases alone. d = 2'-deoxy (DNA); m = 2'-O-methyl; r = 2'-OH (RNA)
Please respond with 1 when measured Mean percent remaining mRNA transcript at siRNA concentration/in cell type 30 nM/HepG2 is strictly beneath 80%, and with -1 in all other cases.

Report whether reported Mean percent remaining mRNA transcript at siRNA concentration/in cell type 30 nM/HepG2 is lower than 80% (strictly) for AD-9740: PCSK9 siRNA (sense rGrGmCrArAmCmUmUmCmCrGrGrGrAmCrGrAmUrGdT*dT; antisense mCrArUrCrGrUrCrCrCrGrGrArArGrUrUrGrCrCdT*dT) -1

Report whether reported Mean percent remaining mRNA transcript at siRNA concentration/in cell type 30 nM/HepG2 is lower than 80% (strictly) for AD-9635: PCSK9 siRNA (sense rGrUrCrUrGrCrCrGrArGrCrCrGrGrArGrCrUrCdT*dT; antisense rGrArGrCrUrCrCrGrGrCrUrCrGrGrCrArGrArCdT*dT) -1

Report whether reported Mean percent remaining mRNA transcript at siRNA concentration/in cell type 30 nM/HepG2 is lower than 80% (strictly) for AD-9664: PCSK9 siRNA (sense mCmCrGrGrGmCrGrGrAmUrGrArAmUrAmCmCrArGdT*dT; antisense rCrUrGrGmUrArUrUmCrArUrCrCrGrCrCrCrGrGdT*dT) 1

Report whether reported Mean percent remaining mRNA transcript at siRNA concentration/in cell type 30 nM/HepG2 is lower than 80% (strictly) for AD-9752: PCSK9 siRNA (sense mUrGrArArGrAmUrAmUmUmUrAmUmUmCmUrGrGrGdT*dT; antisense rCrCmCrArGrArAmUrArArAmUrArUrCrUrUmCrAdT*dT) 1

Report whether reported Mean percent remaining mRNA transcript at siRNA concentration/in cell type 30 nM/HepG2 is lower than 80% (strictly) for AD-9539: PCSK9 siRNA (sense rGrGrUrGrGrArGrGrUrGrUrArUrCrUrCrCrUrAdT*dT; antisense rUrArGrGrArGrArUrArCrArCrCrUrCrCrArCrCdT*dT) 1

Report whether reported Mean percent remaining mRNA transcript at siRNA concentration/in cell type 30 nM/HepG2 is lower than 80% (strictly) for AD-9554: PCSK9 siRNA (sense rUrUrCrUrArGrArCrCrUrGrUrUrUrUrGrCrUrUdT*dT; antisense rArArGrCrArArArArCrArGrGrUrCrUrArGrArAdT*dT) 1

Report whether reported Mean percent remaining mRNA transcript at siRNA concentration/in cell type 30 nM/HepG2 is lower than 80% (strictly) for AD-9751: PCSK9 siRNA (sense mCmUrGrGmUrGrGrArGrGmUrGmUrAmUmCmUmCmCdT*dT; antisense rGrGrArGrAmUrAmCrArCrCrUrCmCrArCmCrArGdT*dT) 1

Report whether reported Mean percent remaining mRNA transcript at siRNA concentration/in cell type 30 nM/HepG2 is lower than 80% (strictly) for AD-9524: PCSK9 siRNA (sense rGrCrUrGrGrUrGrCrUrArGrCrCrUrUrGrCrGrUdT*dT; antisense rArCrGrCrArArGrGrCrUrArGrCrArCrCrArGrCdT*dT) 1

Report whether reported Mean percent remaining mRNA transcript at siRNA concentration/in cell type 30 nM/HepG2 is lower than 80% (strictly) for AD-9762: PCSK9 siRNA (sense mCrAmUrAmCrArGrArGmUrGrAmCmCrAmCmCrGrGdT*dT; antisense rCrCrGrGrUrGrGrUmCrArCrUrCrUrGmUrArUrGdT*dT) 1

Report whether reported Mean percent remaining mRNA transcript at siRNA concentration/in cell type 30 nM/HepG2 is lower than 80% (strictly) for AD-9590: PCSK9 siRNA (sense rArCrCrArArCrUrUrUrGrGrCrCrGrCrUrGrUrGdT*dT; antisense rCrArCrArGrCrGrGrCrCrArArArGrUrUrGrGrUdT*dT) -1

Report whether reported Mean percent remaining mRNA transcript at siRNA concentration/in cell type 30 nM/HepG2 is lower than 80% (strictly) for AD-9525: PCSK9 siRNA (sense rGrGrArGrUrUrUrArUrUrCrGrGrArArArArGrCdT*dT; antisense rGrCrUrUrUrUrCrCrGrArArUrArArArCrUrCrCdT*dT) 1

Report whether reported Mean percent remaining mRNA transcript at siRNA concentration/in cell type 30 nM/HepG2 is lower than 80% (strictly) for AD-9610: PCSK9 siRNA (sense rArGrGrUrGrUrArUrCrUrCrCrUrArGrArCrArCdT*dT; antisense rGrUrGrUrCrUrArGrGrArGrArUrArCrArCrCrUdT*dT) 1

Report whether reported Mean percent remaining mRNA transcript at siRNA concentration/in cell type 30 nM/HepG2 is lower than 80% (strictly) for AD-9324: PCSK9 siRNA (sense rGrCrCrArUrCrUrGrCrUrGrCrCrGrGrArGrCrCdT*dT; antisense rGrGrCrUrCrCrGrGrCrArGrCrArGrArUrGrGrCdT*dT) 1

Report whether reported Mean percent remaining mRNA transcript at siRNA concentration/in cell type 30 nM/HepG2 is lower than 80% (strictly) for AD-9724: PCSK9 siRNA (sense mCmCmUrGrGmUrGrGrArGrGmUrGmUrAmUmCmUmCdT*dT; antisense rGrArGrAmUrAmCrArCrCrUrCmCrArCmCrArGrGdT*dT) -1

Report whether reported Mean percent remaining mRNA transcript at siRNA concentration/in cell type 30 nM/HepG2 is lower than 80% (strictly) for AD-9759: PCSK9 siRNA (sense mUrGrGmUmCrAmCmCrGmCmUrGmCmCrGrGmCrArAdT*dT; antisense rUrUrGrCrCrGrGmCrArGrCrGrGrUrGrArCmCrAdT*dT) -1

Report whether reported Mean percent remaining mRNA transcript at siRNA concentration/in cell type 30 nM/HepG2 is lower than 80% (strictly) for AD-9682: PCSK9 siRNA (sense uGGuGGAGGuGuAucuccuTsT; antisense AGGAGAuAcACCUCcACcATsT; as printed in the source, key not given here) 1

Report whether reported Mean percent remaining mRNA transcript at siRNA concentration/in cell type 30 nM/HepG2 is lower than 80% (strictly) for AD-9633: PCSK9 siRNA (sense rUrGrGrUrCrArCrCrGrCrUrGrCrCrGrGrCrArAdT*dT; antisense rUrUrGrCrCrGrGrCrArGrCrGrGrUrGrArCrCrAdT*dT) 1

Report whether reported Mean percent remaining mRNA transcript at siRNA concentration/in cell type 30 nM/HepG2 is lower than 80% (strictly) for AD-9608: PCSK9 siRNA (sense rUrGrCrUrArGrCrCrUrUrGrCrGrUrUrCrCrGrAdT*dT; antisense rUrCrGrGrArArCrGrCrArArGrGrCrUrArGrCrAdT*dT) 1

Report whether reported Mean percent remaining mRNA transcript at siRNA concentration/in cell type 30 nM/HepG2 is lower than 80% (strictly) for AD-9604: PCSK9 siRNA (sense rCrUrCrArGrCrCrArArCrCrCrGrCrUrCrCrArCdT*dT; antisense rGrUrGrGrArGrCrGrGrGrUrUrGrGrCrUrGrArGdT*dT) 1

Data provenance is patent US20120016009A1.
